Exercise: for every item that follows, state its recorded half-life.
experiment: Half life of compound determined after intravenous administration to rat
Assay type: ADME, organism-based
test.parameters: in vivo
One number for each entry, in h.

Could you report half-life for every entry in the following list?
1. Cc1c(CSc2ccccc2)oc2cccc(OCCCNCc3cccnc3)c12
2. Cc1c(COc2ccccc2C#N)oc2cccc(OCCCNCc3cccnc3)c12
3. Cc1c(COc2ccc(F)cc2F)oc2cccc(OCCCNCc3cccnc3)c12

result:
[1.4, 0.5, 1.6]

Could you report half-life for every entry in the following list?
1. Cc1c(COc2ccccc2F)oc2cccc(OCCCNCc3cccnc3)c12
2. Cc1c(COc2ccc(F)cc2)oc2cccc(OCCCNCc3cccnc3)c12
3. Cc1c(C(=O)Nc2ccccc2)oc2cccc(OCCCNCc3cccnc3)c12

result:
[1.6, 1.9, 0.9]

====

Test system: Candida albicans
experiment: Antifungal activity expressed as inhibitory concentration against Candida albicans CY1002 in calf serum
Type: functional, organism-based
assay.metric: pIC50
Numbers only, as −log10 of the molar value.

Could you report pIC50 for every entry in the following list?
1. Cc1c(CSc2ccccc2)oc2cccc(OCCCNCc3cccnc3)c12
2. Cc1c(COc2ccc(Cl)cc2)oc2cccc(OCCCNCc3cccnc3)c12

result:
[3.74, 5.18]

Could you report pIC50 for every entry in the following list?
1. Cc1c(COc2cccc(F)c2F)oc2cccc(OCCCNCc3cccnc3)c12
2. Cc1c(COc2cccc(F)c2)oc2cccc(OCCCNCc3cccnc3)c12
3. Cc1c(COc2ccc(Br)cc2F)oc2cccc(OCCCNCc3cccnc3)c12
4. OC(Cn1cncn1)(Cn1cncn1)c1ccc(F)cc1F [FLUCONAZOLE]

result:
1. 6.24
2. 5.48
3. 5.89
4. 6.30

Could you report pIC50 for every entry in the following list?
1. Cc1c(COc2ccccc2C#N)oc2cccc(OCCCNCc3cccnc3)c12
2. Cc1c(COc2ccc(C#N)cc2)oc2cccc(OCCCNCc3cccnc3)c12
3. Cc1c(COc2ccc(F)cc2)oc2cccc(OCCCNCc3cccnc3)c12
4. Cc1c(COc2ccc(F)c(F)c2F)oc2cccc(OCCCNCc3cccnc3)c12

result:
[5.48, 5.85, 6.15, 6.48]

Could you report pIC50 for every entry in the following list?
1. Cc1c(COc2ccccc2F)oc2cccc(OCCCNCc3cccnc3)c12
2. Cc1c(COc2ccc(F)cc2F)oc2cccc(OCCCNCc3cccnc3)c12

result:
1. 6.22
2. 6.47

====

Exercise: for every item that follows, state its recorded half-life.
experiment: Half life of compound determined after intravenous administration to rat
Type: ADME, organism-based
test.parameters: in vivo
Numbers only, in h.

Record excerpt, results attached:
structure.smiles | experimental.value
Cc1c(COc2ccc(Br)cc2F)oc2cccc(OCCCNCc3cccnc3)c12 | 3.6
Cc1c(COc2cccc(F)c2)oc2cccc(OCCCNCc3cccnc3)c12 | 1.5
Cc1c(CCc2ccccc2)oc2cccc(OCCCNCc3cccnc3)c12 | 1.1
Cc1c(COc2ccc(F)c(F)c2F)oc2cccc(OCCCNCc3cccnc3)c12 | 2
OC(Cn1cncn1)(Cn1cncn1)c1ccc(F)cc1F | 4
Cc1c(COc2cccc(F)c2F)oc2cccc(OCCCNCc3cccnc3)c12 | 1.9
Cc1c(COc2ccc(Cl)cc2)oc2cccc(OCCCNCc3cccnc3)c12 | 2.4
CCOC(=O)c1oc2cccc(OCCCNCc3cccnc3)c2c1C | 0.4
Cc1c(COc2ccc(C#N)cc2)oc2cccc(OCCCNCc3cccnc3)c12 | 1.2

Attention now turns to another entry.
query: Look up half-life for this molecule: "Cc1c(COc2ccccc2)oc2cccc(OCCCNCc3cccnc3)c12"
result: 1.9

====

experiment: Plasma concentration expressed as area under curve after intravenous administration was determined in rat
Assay type: ADME, organism-based
Threshold rule: AUC greater than or equal to 300 ng·h/mL is label 1; below that, label 0.

These recorded examples may help you get a feel for the data.
compound | answer.label
Cc1c(CCc2ccccc2)oc2cccc(OCCCNCc3cccnc3)c12 | label 0
Cc1c(COc2ccc(F)cc2F)oc2cccc(OCCCNCc3cccnc3)c12 | label 1
OC(Cn1cncn1)(Cn1cncn1)c1ccc(F)cc1F [FLUCONAZOLE] | label 0
Cc1c(CSc2ccccc2)oc2cccc(OCCCNCc3cccnc3)c12 | label 1

Alright, here's another compound for you.
query: Identify whether the reported AUC of the following compound is 300 ng·h/mL or greater: "Cc1c(COc2ccccc2C#N)oc2cccc(OCCCNCc3cccnc3)c12"
result: label 0

====

assay.target: Candida albicans N-myristoyltransferase (Candida albicans)
experiment: Inhibitory activity against Candida albicans N-Myristoyltransferase (Nmt)
assay.metric: pIC50
Give bare numbers, as −log10 of the molar value.

query: Look up pIC50 for this compound: "Cc1c(COc2ccc(C#N)cc2)oc2cccc(OCCCNCc3cccnc3)c12"
result: 8.03

====

assay.target: Candida albicans N-myristoyltransferase (Candida albicans)
experiment: Inhibitory activity against Candida albicans (Nmt) assessed as inhibitory concentration
assay.metric: IC50 (nM)
Give bare numbers, in nM.

query: Look up IC50 for this molecule: "Cc1c(COc2ccccc2F)oc2cccc(OCCCNCc3cccnc3)c12"
result: 8.3

====

assay.target: Peptide N-myristoyltransferase (Homo sapiens, UniProt P30419+O60551)
Sequence (P30419 whole entry): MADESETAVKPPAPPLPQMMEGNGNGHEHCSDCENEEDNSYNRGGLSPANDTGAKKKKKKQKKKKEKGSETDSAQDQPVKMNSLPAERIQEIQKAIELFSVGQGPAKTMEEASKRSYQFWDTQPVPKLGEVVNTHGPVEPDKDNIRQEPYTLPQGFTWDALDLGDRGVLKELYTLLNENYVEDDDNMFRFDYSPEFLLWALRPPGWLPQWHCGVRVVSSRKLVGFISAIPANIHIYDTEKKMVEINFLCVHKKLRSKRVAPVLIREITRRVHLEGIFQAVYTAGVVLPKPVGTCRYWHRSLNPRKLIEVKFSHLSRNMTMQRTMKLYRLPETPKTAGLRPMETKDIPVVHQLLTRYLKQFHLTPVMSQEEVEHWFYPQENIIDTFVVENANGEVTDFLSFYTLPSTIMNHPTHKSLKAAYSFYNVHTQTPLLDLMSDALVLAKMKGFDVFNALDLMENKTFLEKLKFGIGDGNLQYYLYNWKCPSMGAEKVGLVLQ
Sequence (O60551 whole entry): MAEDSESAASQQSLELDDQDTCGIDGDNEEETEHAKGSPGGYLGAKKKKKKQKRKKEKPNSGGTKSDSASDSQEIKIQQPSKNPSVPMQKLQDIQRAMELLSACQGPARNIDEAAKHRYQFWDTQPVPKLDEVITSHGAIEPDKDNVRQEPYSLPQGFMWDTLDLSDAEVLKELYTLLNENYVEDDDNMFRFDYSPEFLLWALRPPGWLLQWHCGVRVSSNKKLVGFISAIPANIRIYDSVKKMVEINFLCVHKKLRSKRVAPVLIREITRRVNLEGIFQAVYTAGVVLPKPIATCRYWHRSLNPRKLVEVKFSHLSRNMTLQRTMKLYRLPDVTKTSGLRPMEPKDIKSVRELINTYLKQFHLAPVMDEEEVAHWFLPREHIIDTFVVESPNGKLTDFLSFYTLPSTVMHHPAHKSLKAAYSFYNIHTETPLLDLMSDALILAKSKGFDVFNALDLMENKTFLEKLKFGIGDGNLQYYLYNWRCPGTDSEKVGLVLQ
experiment: Inhibitory activity against human N-Myristoyltransferase (HsNmt) assessed as inhibitory concentration using substrate peptide and myristotyl-CoA at 0.5 uM
Format: protein assay
Exercise: for every item that follows, state its recorded IC50.

structure.smiles | IC50
Cc1c(C(=O)Nc2ccccc2)oc2cccc(OCCCNCc3cccnc3)c12 | > 480 µM
CCOC(=O)c1oc2cccc(OCCCNCc3cccnc3)c2c1C | > 450 µM
Cc1c(COc2cccc(F)c2)oc2cccc(OCCCNCc3cccnc3)c12 | > 110 µM
Cc1c(COc2ccc(C#N)cc2)oc2cccc(OCCCNCc3cccnc3)c12 | > 460 µM
Cc1c(COc2ccc(F)cc2)oc2cccc(OCCCNCc3cccnc3)c12 | 67 µM
Cc1c(COc2ccccc2F)oc2cccc(OCCCNCc3cccnc3)c12 | > 470 µM
Cc1c(COc2ccccc2)oc2cccc(OCCCNCc3cccnc3)c12 | 77 µM
Cc1c(COc2ccc(Cl)cc2)oc2cccc(OCCCNCc3cccnc3)c12 | > 110 µM
Cc1c(COc2ccc(F)cc2F)oc2cccc(OCCCNCc3cccnc3)c12 | > 450 µM
Cc1c(COc2ccccc2C#N)oc2cccc(OCCCNCc3cccnc3)c12 | 19 µM

Could you report IC50 for every entry in the following list?
1. Cc1c(CCc2ccccc2)oc2cccc(OCCCNCc3cccnc3)c12
2. Cc1c(COc2ccc(Br)cc2F)oc2cccc(OCCCNCc3cccnc3)c12

result:
["12 µM", "> 400 µM"]

====

assay.target: Candida albicans N-myristoyltransferase (Candida albicans)
experiment: Inhibitory activity against Candida albicans N-Myristoyltransferase (CaNmt) assessed as inhibitory concentration using substrate peptide and myristotyl-CoA at 0.5 uM
# strict inequality: IC50 < 70 nM yields 1, everything else yields 0

structure.smiles | answer.label
Cc1c(COc2ccc(F)cc2F)oc2cccc(OCCCNCc3cccnc3)c12 | 1
Cc1c(CCc2ccccc2)oc2cccc(OCCCNCc3cccnc3)c12 | 0
Cc1c(COc2cccc(F)c2)oc2cccc(OCCCNCc3cccnc3)c12 | 0
Cc1c(COc2ccccc2C#N)oc2cccc(OCCCNCc3cccnc3)c12 | 1
Cc1c(COc2ccc(F)cc2)oc2cccc(OCCCNCc3cccnc3)c12 | 1
Cc1c(COc2ccc(C#N)cc2)oc2cccc(OCCCNCc3cccnc3)c12 | 1

query: Quick check: IC50 of "Cc1c(COc2ccc(Cl)cc2)oc2cccc(OCCCNCc3cccnc3)c12" under 70 nM?
result: 0

query: Quick check: IC50 of "Cc1c(C(=O)Nc2ccccc2)oc2cccc(OCCCNCc3cccnc3)c12" under 70 nM?
result: 0

query: Quick check: IC50 of "Cc1c(COc2ccc(Br)cc2F)oc2cccc(OCCCNCc3cccnc3)c12" under 70 nM?
result: 1

query: Quick check: IC50 of "Cc1c(COc2ccccc2F)oc2cccc(OCCCNCc3cccnc3)c12" under 70 nM?
result: 1

Source of measurements: ChEMBL document CHEMBL1135839
